protocol_text: amyloid nucleation score (Sup35N fusion, yeast selection) (log enrichment); library NNK1; higher = more nucleation; inactive = no reads after selection;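 note: zero at mode of non-aggregating sequences after 7 days selection at 30°C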
property_measured: amyloid nucleation score

| sequence_text | property_measured | result |
| --- | --- | --- |
| DTLGRSLLYYIRYSRVNFPV | amyloid nucleation score | inactive |
| HWCYVLNS | amyloid nucleation score | inactive |
| WRDTDCGLIN | amyloid nucleation score | inactive |

---

protocol_text: amyloid nucleation score (Sup35N fusion, yeast selection) (log enrichment); library NNK3; higher = more nucleation; inactive = no reads after selection
property_measured: amyloid nucleation score

Examples with answers:
| substance | amyloid nucleation score |
| --- | --- |
| IPYRVFRRTLNLVENMMCRM | inactive |
| MRYGKLDLSRVYLQCDRLGR | inactive |
| IRRQYIYHSNEYRMMHYSES | 0.179 |
| RYKEFVGNSIRIPDTCLSCC | inactive |
| IKFDGIIADFSSITVVLECT | 0.708 |

The recorded amyloid nucleation score for entry HYMLGSLSPVWLFFL equals inactive

// amyloid nucleation score value for AHGHISCLLTYTAYWYCCV : 0.502

substance EVFSDVY , amyloid nucleation score observed: inactive

What the record says about SSKARSQSCVLRMMIPDRQW : amyloid nucleation score is inactive

// STYDRVKNLYVRRSAVVLPS : amyloid nucleation score value = inactive

According to the records, this substance RTWSAKGYDNIRDVGLNSES displays amyloid nucleation score of inactive
